From: patent US11339171B2

# protocol.text: Pharmacokinetics in ICR mice after intravenous and intragastric administration
# Type: in vivo
# setup.conditions: male, ICR, mouse, plasma, iv, 2 mg/kg, ICR mice, IV 2 mg/kg, mean of 3 animals; read-out: Cmax
hey, just use Y if measured Cmax is less than 3000 ng/mL, otherwise N

Use the examples below as a reference point.
[Q] Consider COc1nc(C2CC2)ncc1-c1nc2c(n1C(C)C)[C@@]1(C(=O)Nc3cc(Cl)ccc31)N(c1cc(Cl)ccc1C)C2=O [Example S-121] . Does its Cmax lie strictly below 3000 ng/mL?
[A] N

[Q] Consider COc1cc(OC)c(-c2nc3c(n2C(C)C)[C@@]2(C(=O)Nc4cc(Cl)ccc42)N(c2cc(Cl)cnc2C)C3=O)cn1 [Example S-131] . Does its Cmax lie strictly below 3000 ng/mL?
[A] Y

[Q] Consider CCOc1cc(OC)c(-c2nc3c(n2C(C)C)[C@@]2(C(=O)Nc4cc(Cl)ccc42)N(c2cc(Cl)ccc2F)C3=O)cn1 [Example S-98] . Does its Cmax lie strictly below 3000 ng/mL?
[A] N

[Q] Consider COc1cc(C(F)(F)F)ncc1-c1nc2c(n1C(C)C)[C@@]1(C(=O)Nc3cc(Cl)ccc31)N(c1cc(Cl)ccc1C)C2=O [Example S-138] . Does its Cmax lie strictly below 3000 ng/mL?
[A] Y

[Q] Consider COc1nc(C2CC2)ncc1-c1nc2c(n1C(C)C)[C@@]1(C(=O)Nc3cc(Cl)ccc31)N(c1cc(Cl)cnc1C)C2=O [Example S-159] . Does its Cmax lie strictly below 3000 ng/mL?
[A] Y

[Q] Consider COc1nc(N(C)C)ncc1-c1nc2c(n1C(C)C)[C@@]1(C(=O)Nc3cc(Cl)ccc31)N(c1cc(Cl)cnc1C)C2=O [Example S-135] . Does its Cmax lie strictly below 3000 ng/mL?
[A] N

Consider the additional compound presented here.
[Q] Consider CCOc1cc(OC)c(-c2nc3c(n2C(C)C)[C@@]2(C(=O)Nc4cc(Cl)ccc42)N(c2cc(Cl)cnc2C)C3=O)cn1 [Example S-96] . Does its Cmax lie strictly below 3000 ng/mL?
[A] N
